Tested on: 883617-216-R-J1-PDC complex spheroids, growth, % test/control;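 further: exposure lasted 7 days after dosing on day 3 of spheroid growth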
Assay: Anticancer human tumor 883617-216-R-J1-PDC patient-derived bladder carcinoma cell line growth inhibition [AhR]
Settings: second compound 10 µM; first compound 3.16 µM; stronger effect = lower value
Could you please mark T for values of viability, T/C below 40% and F for values at or above it?

Please review the entries below; each comes with its answer.
molecule="COc1ccc([C@@H](O)c2cc(-c3ncnc4cc(N5CCOCC5)ccc34)c(F)cc2Cl)nn1 + Cc1cncc(-c2nc(NCCc3c[nH]c4ccccc34)c3ncn(C(C)C)c3n2)c1" answer_label=T
molecule="CC1COCCN1c1cc(C2(S(C)(=N)=O)CC2)nc(-c2ccnc3[nH]ccc23)n1 (configuration not stated) + Cc1cncc(-c2nc(NCCc3c[nH]c4ccccc34)c3ncn(C(C)C)c3n2)c1" answer_label=F
molecule="Nc1ccn(C2OC(CO)C(O)C2(F)F)c(=O)n1 (configuration not stated) + CC(CO)NC(=O)c1cc(-c2ccc(Cl)cc2)nn(-c2cnn(C)c2)c1=O" answer_label=F
molecule="O=C(c1cc(Cc2n[nH]c(=O)c3ccccc23)ccc1F)N1CCN(C(=O)C2CC2)CC1 + CC(CO)NC(=O)c1cc(-c2ccc(Cl)cc2)nn(-c2cnn(C)c2)c1=O" answer_label=F
molecule="COc1ccc([C@@H](O)c2cc(-c3ncnc4cc(N5CCOCC5)ccc34)c(F)cc2Cl)nn1 + CC(CO)NC(=O)c1cc(-c2ccc(Cl)cc2)nn(-c2cnn(C)c2)c1=O" answer_label=F
molecule="Nc1ccccc1NC(=O)c1ccc(CNC(=O)OCc2cccnc2)cc1 + Cc1ccccc1N=Nc1ccc(NC(=O)c2ccnn2C)c(C)c1" answer_label=T
molecule="CC(C)c1c(-c2ccccc2)nc2c(C#N)c[nH]n2c1=O + Cc1ccccc1N=Nc1ccc(NC(=O)c2ccnn2C)c(C)c1" answer_label=F
molecule="CC1(C)CCC(CN2CCN(c3ccc(C(=O)NS(=O)(=O)c4ccc(NCC5CCOCC5)c([N+](=O)[O-])c4)c(Oc4cnc5[nH]ccc5c4)c3)CC2)=C(c2ccc(Cl)cc2)C1 + Cc1cncc(-c2nc(NCCc3c[nH]c4ccccc34)c3ncn(C(C)C)c3n2)c1" answer_label=F
molecule="COc1cc(C2c3cc4c(cc3C(OC3OC5COC(C)OC5C(O)C3O)C3COC(=O)C23)OCO4)cc(OC)c1O (configuration not stated) + Cc1cncc(-c2nc(NCCc3c[nH]c4ccccc34)c3ncn(C(C)C)c3n2)c1" answer_label=F
molecule="COc1ccc([C@@H](O)c2cc(-c3ncnc4cc(N5CCOCC5)ccc34)c(F)cc2Cl)nn1 + Cc1ccccc1N=Nc1ccc(NC(=O)c2ccnn2C)c(C)c1" answer_label=F

Prompt: Quick check: does CC1COCCN1c1cc(C2(S(C)(=N)=O)CC2)nc(-c2ccnc3[nH]ccc23)n1 (configuration not stated) + Cc1ccccc1N=Nc1ccc(NC(=O)c2ccnn2C)c(C)c1 have viability, T/C under 40%?
Response: F

Prompt: Quick check: does Nc1ccccc1NC(=O)c1ccc(CNC(=O)OCc2cccnc2)cc1 + Cc1cncc(-c2nc(NCCc3c[nH]c4ccccc34)c3ncn(C(C)C)c3n2)c1 have viability, T/C under 40%?
Response: T
